# Test system: NCI-H460
# experiment_notes: NCI tumour cell line growth inhibition, 48 h
Active and inactive are the calls of the source. Cut-off read from the data, not from the text of the source: active = GI50 up to about 1.1 µM and inactive = higher.
I'd be grateful if you could share measured GI50 for these entries.

INSERT INTO measurements (compound, endpoint, result) VALUES
  ('COC1=CC(=O)c2c(O)ccc(O)c2C1=O', 'GI50', '5.04 µM (inactive)'),
  ('COC(=O)C1=C(OC(=O)/C(=C/c2ccccc2)c2ccc(Cl)cc2Cl)C(C(=O)OC)[C@@]2(O)[C@@H](C(=O)OC)[C@H](C)C[C@@H]1[C@@H]2C(=O)OC (stereo partly drawn)', 'GI50', '> 100 µM (inactive)'),
  ('CC(CC(=O)O)(CC(=O)O)C(=O)O', 'GI50', '> 100 µM (inactive)');

# return GI50 for each item in the list
1. O=C(/C=C/c1ccc2c(c1)OCO2)c1ccc(O)cc1
2. CCCNC(=O)c1cc(NC(=O)c2cc(NC(=O)CCS(=O)(=O)OC)cn2C)cn1C
3. O=C1[C@@H]2C(c3ccccc3[N+](=O)[O-])=[N+](c3ccccc3)O[C@@H]2C(=O)N1c1ccc(Cc2ccc(N3C(=O)[C@H]4C(c5ccccc5[N+](=O)[O-])=[N+](c5ccccc5)O[C@H]4C3=O)cc2)cc1
4. C=C1C(=O)O[C@H]2C[C@@]3(COC(C)=O)C=COC=C(COC(=O)C(C)C)C3CC12 (stereo partly drawn)
5. O=C(c1ccc(Cl)cc1)C1OC12C(=O)Nc1c(Cl)cc(Cl)cc12 (stereo not drawn)

1: 15 µM (inactive); 2: > 100 µM (inactive); 3: > 100 µM (inactive); 4: > 100 µM (inactive); 5: 50.8 µM (inactive)

---

# System: CCRF-CEM
# experiment_notes: NCI tumour cell line growth inhibition, 48 h
Active and inactive are the calls of the source. Rule as the data show it: active = GI50 up to about 1.1 µM and inactive = higher.
// one of Y = active, N = inactive, no free text

INSERT INTO results (compound, tested_on, assigned_class) VALUES
  ('COc1ccc(N2C(=O)C3c4[nH]c5ccccc5c4C4CCC(C(C)C)CC4C3C2=O)cc1 (configuration not stated)', 'CCRF-CEM', 'Y'),
  ('CCOC(=O)c1c(-c2ccccc2)oc(-c2ccccc2)c1C(=O)OCC', 'CCRF-CEM', 'N'),
  ('CCCCCCCSCC1OC(n2cnc3c(N)ncnc32)C(O)C1O (configuration not stated)', 'CCRF-CEM', 'N'),
  ('CCOC(=O)C1C(=O)CC(O)(c2ccccc2)C(C(=O)OCC)C1c1ccc(OC)cc1 (configuration not stated)', 'CCRF-CEM', 'N'),
  ('O=C1c2c(O)ccc(O)c2C(=O)c2c(NCCNC(=O)C(O)C(O)C(O)C(O)CO)ccc(NCCNC(=O)C(O)C(O)C(O)C(O)CO)c21 (configuration not stated)', 'CCRF-CEM', 'Y');

How did this test come out for COC(=O)C(C(=O)C(=O)Nc1c(C)cccc1C(C)(C)C)c1nc2ccc(Cl)cc2nc1O (configuration not stated) ?
N

How did this test come out for COC(=O)C(Cc1c[nH]c2ccccc12)NC1=Nc2ccncc2S(=O)(=O)N1c1ccccc1 (configuration not stated) ?
N

How did this test come out for `O=C(CC(Cl)=C(Cl)Cl)c1ccccc1` ?
N

How did this test come out for O=C(c1ccc(Cl)cc1)C1OC12C(=O)Nc1c(Cl)cc(Cl)cc12 (configuration not stated) ?
N

How did this test come out for CCOC(=O)C(O)(CC1=NC(C(=O)OC)(C(=O)OC)C(c2cccc(C=O)c2)O1)C(=O)OCC (configuration not stated) ?
N

How did this test come out for CC1(C)O[C@H]2OC(CO)C(N=[N+]=[N-])[C@H]2O1 (some centres not stated) ?
N

How did this test come out for C/C1=C/C[C@@H](/C(C)=C/c2csc(C)n2)OC(=O)C[C@H](O)C(C)(C)C(=O)[C@H](C)[C@@H](O)[C@@H](C)CCC1 [EPOTHILONE D] ?
Y

How did this test come out for C[C@@H]1CCC2[C@@H](C)[C@H](O[C@H]3O[C@@H]4O[C@@]5(C)CCC6[C@H](C)CCC([C@H]3C)[C@]64OO5)O[C@@H]3O[C@@]4(C)CCC1[C@@]23OO4 (some centres not stated) ?
Y

How did this test come out for Cc1ccc(/C=C2\N=C(N3CCCC(CO)C3)NC2=O)cc1 (configuration not stated) ?
N

How did this test come out for COC(=O)C1=C(OC(=O)/C(=C/c2ccccc2)c2ccc(Cl)cc2Cl)C(C(=O)OC)[C@@]2(O)[C@@H](C(=O)OC)[C@H](C)C[C@@H]1[C@@H]2C(=O)OC (some centres not stated) ?
N

How did this test come out for `CCOC(=O)c1cc2cc3c4c(c2oc1=O)CCCN4CCC3` ?
N

How did this test come out for `C=CC(C)(C)/C(=C\CO[Si](C(C)C)(C(C)C)C(C)C)C(=O)N(C)c1ccccc1I` ?
N
